Could you please report measured PBM binding z-score for the items listed next?
System: RARg homodimer (NR concentration 270 nM)
Procedure details: PBM binding z-score (relative to random genomic background probes); higher = stronger binding; sequences stand for … in GC…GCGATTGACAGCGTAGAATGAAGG
One number for each entry.

ATACCAAGGTAATCGTGAGGTCGTTGATACTAAC	0.586
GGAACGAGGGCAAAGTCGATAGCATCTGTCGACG	0.988
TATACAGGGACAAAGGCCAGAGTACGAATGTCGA	1.58
TCATATAGGTAAATGCTTGGTGAAAGTCCGATCT	0.0294
ATTCAAAGTTCAGGACGAGGTAACGTAAAGCACG	4.73

Prompt: Endpoint output: PBM binding z-score of TCTGCTAGGTCAGTTGGTCAGCGAACGAGCTGCC . Value?
Completion: 3.87

###

Could you please report measured PBM binding z-score for the items listed next?
System: RARb homodimer (NR concentration 270 nM)
Procedure details: PBM binding z-score (relative to random genomic background probes); higher = stronger binding; sequences stand for … in GC…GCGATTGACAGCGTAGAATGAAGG
Numbers only.

Check out these entries, answers already filled in.
ATCTCTAGGCAACAAGTTCAGTGAAAGAGAGGAC	1.5
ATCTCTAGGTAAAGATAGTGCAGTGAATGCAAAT	-0.372
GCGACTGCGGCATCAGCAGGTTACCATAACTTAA	0.0981
GGAACGAGGGCAAGTTCATAGCAGAGTTTGATGG	2.84
CCAACTGGGGCATAAGGTTACCATAAGCCAGCCC	1.68
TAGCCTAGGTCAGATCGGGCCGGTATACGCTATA	1.98
CGAACTAGGTCAAGGGCAGTGAATCTCCGCACGC	3.25
TCATATAGGTAAATGCTAGGTGATAGTCCGATCT	-0.0324
AGAACGAGGGCAATGAGTTGATACCACGGGTGGC	0.985
TAGCCTAGGTCATGGGCCAGTAAACCACGCGAAC	2.99

Parameter requested: PBM binding z-score. Apply to each item below.
1. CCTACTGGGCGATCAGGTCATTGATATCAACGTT
2. CCAGACAGGTGAAAGGTAACTGAGTCTGGTACGC

Completion:
2.23
0.792

###

Tested on: PPARg:RXRa 270nM:90nM, anti-RXR (NR concentration 270 nM, RXRa partner concentration 90 nM)
Procedure details: PBM binding z-score (relative to random genomic background probes); higher = stronger binding; sequences stand for … in GC…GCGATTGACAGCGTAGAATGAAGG
Could you please report measured PBM binding z-score for the items listed next?
Give bare numbers.

Check out these entries, answers already filled in.
TCATAAAGGTAAATGCTAGGTGAAAGTCCGATCT	2.52
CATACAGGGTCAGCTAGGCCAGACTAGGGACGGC	2.8
TCTTGTAGATGAAGCAGGTTAAGAAAGCCTGAGT	0.925

Parameter requested: PBM binding z-score. Apply to each item below.
1. CGTCCAAGGTCAAAGGAGGTCAGTGAAGACAGAT
2. TTACCAAGGTGTAAGGTCGTTGATGCACGCCTTG

Completion:
1. 5.46
2. 4.03

###

Test system: RARa homodimer (NR concentration 270 nM)
Procedure details: PBM binding z-score (relative to random genomic background probes); higher = stronger binding; sequences stand for … in GC…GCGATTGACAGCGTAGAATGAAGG
Value type: PBM binding z-score
Answers are plain numbers.

TCATATAGATAAATGCTAGGTGAAAGTCCGATCT	1.19
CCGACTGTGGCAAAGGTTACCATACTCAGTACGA	0.0109
CGTCCAAGGTCAAGGTCAGCGAAAGAGACTCGAA	0.668

Parameter requested: PBM binding z-score. Apply to each item below.
1. GCATAGAGGTAATACAAGGTGAAAGTCCGATTGT
2. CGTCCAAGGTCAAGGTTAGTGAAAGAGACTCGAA
3. TCATATTGGTAAAAGGTGAAAGTCGGTGTGGTAA

Completion:
0.413
0.992
2.36
